All figures here come from patent US20010021697A1.

Tested on: E. coli G1108E
Protocol Details: Checkerboard titration synergy assay of melittin analogues with polymyxin B
Assay type: cell-based
Conditions Used: 5 ug/ml peptide with 6 units/ml polymyxin B; delay time until mid-log phase (FIG. 26)
Please go through the items and note down their relative in vitro activity, place in ascending order.

Before answering, review these 3 worked examples.
{"Substance": "Melittin (1-20) - Lys-Arg-Lys-Arg-Gly-Gly-NH2 [Analogue #4]", "Target Or Test System": "E. coli G1108E", "Reported": 7}
{"Substance": "Melittin (1-20) - Gly-Gly-Gly-Gly-Gln-Gln-NH2 [Analogue #7]", "Target Or Test System": "E. coli G1108E", "Reported": 1}
{"Substance": "H-Gly-Ile-Gly-Ala-Val-Leu-Lys-Val-Leu-Thr-Thr-Gly-Leu-Pro-Ala-Leu-Ile-Ser-Trp-Ile-Lys-Lys-Lys-Lys-Gln-Gln-NH2 (H-GIGAVLKVLTTGLPALISWIKKKKQQ-NH2) [Analogue #6]", "Target Or Test System": "E. coli G1108E", "Reported": 4}

Consider the following items and state reported relative in vitro activity, place in ascending order for each.
1. Melittin (1-20)-Lys-Arg-Lys-Arg-Gln-Gln-NH2.
2. Melittin (1-20) - Orn-Orn-Orn-Orn-Gln-Gln-NH2 [Analogue #2]
3. Melittin (1-20) - Arg-Arg-Arg-Arg-Gln-Gln-NH2 [Analogue #5]

Result block:
[2, 6, 8]

* * *

Protocol Details: Relative activity of analogues with respect to native melittin
Type: cell-based
Observable: Relative Activity (%)
One number for each entry, in %.

{"Substance": "H-Gly-Ile-Gly-Ala-Val-Leu-Lys-Val-Leu-Thr-Thr-Gly-Leu-Pro-Ala-Leu-Ile-Ser-Trp-Ile-Lys-Lys-Lys-Lys-Gln-Gln-NH2 (H-GIGAVLKVLTTGLPALISWIKKKKQQ-NH2) [Analogue #6]", "Observable": "Relative Activity", "Reported": 100}
{"Substance": "Melittin (1-20) - Gly-Gly-Gly-Gly-Gln-Gln-NH2 [Analogue #7]", "Observable": "Relative Activity", "Reported": 20}

Consider the following items and state reported Relative Activity for each.
1. Melittin (1-20) - Orn-Orn-Orn-Orn-Gln-Gln-NH2 [Analogue #2]
2. Melittin (1-20) - Arg-Arg-Arg-Arg-Gln-Gln-NH2 [Analogue #5]

Result block:
[200, 300]
